Reported IC50 Ratio (PDE II) Heart/Platelet values follow for various compounds
Biological target: UniProt Q14432
Sequence (Q14432 whole entry): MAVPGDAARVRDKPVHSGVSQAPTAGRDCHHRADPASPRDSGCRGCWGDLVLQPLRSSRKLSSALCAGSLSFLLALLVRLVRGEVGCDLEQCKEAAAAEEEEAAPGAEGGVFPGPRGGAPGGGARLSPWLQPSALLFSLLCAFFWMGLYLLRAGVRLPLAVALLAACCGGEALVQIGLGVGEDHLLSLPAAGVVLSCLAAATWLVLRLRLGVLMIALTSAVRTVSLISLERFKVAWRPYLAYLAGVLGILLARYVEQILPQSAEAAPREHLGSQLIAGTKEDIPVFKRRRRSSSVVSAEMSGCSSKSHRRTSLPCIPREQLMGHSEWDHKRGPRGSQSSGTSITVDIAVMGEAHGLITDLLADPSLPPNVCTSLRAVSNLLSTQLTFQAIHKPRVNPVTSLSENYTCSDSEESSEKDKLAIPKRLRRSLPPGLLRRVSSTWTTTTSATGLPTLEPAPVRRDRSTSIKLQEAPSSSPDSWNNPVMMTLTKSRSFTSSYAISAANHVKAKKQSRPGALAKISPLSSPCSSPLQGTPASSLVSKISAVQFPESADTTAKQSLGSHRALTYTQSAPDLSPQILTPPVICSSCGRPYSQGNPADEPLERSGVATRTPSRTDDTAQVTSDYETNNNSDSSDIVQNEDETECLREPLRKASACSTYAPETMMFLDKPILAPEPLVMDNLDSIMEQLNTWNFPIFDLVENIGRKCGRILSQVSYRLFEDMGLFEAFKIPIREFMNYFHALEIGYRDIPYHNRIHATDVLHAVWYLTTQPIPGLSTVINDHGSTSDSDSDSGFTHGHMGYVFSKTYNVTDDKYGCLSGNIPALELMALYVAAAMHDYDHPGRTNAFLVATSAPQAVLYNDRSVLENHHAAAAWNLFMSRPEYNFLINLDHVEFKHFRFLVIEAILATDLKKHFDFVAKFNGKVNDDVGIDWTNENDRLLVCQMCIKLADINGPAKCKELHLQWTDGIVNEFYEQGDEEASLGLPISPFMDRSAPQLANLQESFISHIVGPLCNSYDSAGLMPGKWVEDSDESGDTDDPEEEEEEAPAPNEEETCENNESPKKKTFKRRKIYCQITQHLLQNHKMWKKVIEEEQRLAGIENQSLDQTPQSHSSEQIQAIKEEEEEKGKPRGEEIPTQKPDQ
Assay: biochemical
Conditions: Heart/Platelet
measured endpoint: IC50 Ratio (PDE II) Heart/Platelet

Cl.O=C1CN2Cc3c(sc4c3CCCC4)N=C2N1 [DH-6471, reference compound] :: 7.1
CN(C)c1ccc2c(c1)CN1CC(=O)NC1=N2 :: 1.1
CN(C)c1cc2c(cc1Cl)NC1=NC(=O)CN1C2 :: 1.7
CC1CCCCN1c1ccc2c(c1)CN1CC(=O)NC1=N2 (stereo not drawn) :: 2.3
O=C1CN2Cc3cc(N4CCCCC4)ccc3N=C2N1 [7-Piperidino Compound, reference compound] :: 5.3
CN(C)c1ccc2c(c1Cl)CN1CC(=O)NC1=N2 :: 1.2

---

Entries with their measured log10 of IC50, system human platelet PDE I (Homo sapiens):
measured endpoint: log10 of IC50 (log10 of the value in µM)

CC1CCCCN1c1ccc2c(c1)CN1CC(=O)NC1=N2 (stereo not drawn) :: 1.65
CN(C)c1ccc2c(c1Cl)CN1CC(=O)NC1=N2 :: 0.20
Cl.Cl.O.O=C1CN2Cc3cc(N4CCCCC4)c(Cl)cc3N=C2N1 [Example 16, dihydrochloride monohydrate] :: 1.48
CN(C)c1ccc2c(c1)CN1CC(=O)NC1=N2 :: 1.85
O=C1CN2Cc3cc(N4CCCCC4)ccc3N=C2N1 [7-Piperidino Compound, reference compound] :: 1.97
CN(C)c1cc2c(cc1Cl)NC1=NC(=O)CN1C2 :: 0.59
O=C1CN2Cc3c(ccc(Cl)c3Cl)N=C2N1 :: 0.59

---

Molecular target: human heart PDE I
Assay: Inhibitory activity on phosphodiesterase, heart PDE I (cGMP)
Conditions: cGMP substrate
pIC50: −log10 of the molar value.
Some compounds, each annotated with its measured pIC50.
measured endpoint: pIC50

Cl.Cl.O.O=C1CN2Cc3cc(N4CCCCC4)c(Cl)cc3N=C2N1 [Example 16, dihydrochloride monohydrate] :: < 5.00
CC1CCCCN1c1ccc2c(c1)CN1CC(=O)NC1=N2 (stereo not drawn) :: < 4.30
O=C1CN2Cc3cc(N4CCCCC4)ccc3N=C2N1 [7-Piperidino Compound, reference compound] :: < 4.00
Cl.O=C1CN2Cc3c(sc4c3CCCC4)N=C2N1 [DH-6471, reference compound] :: < 5.00
O=C1CN2Cc3c(ccc(Cl)c3Cl)N=C2N1 :: < 5.00
CN(C)c1ccc2c(c1Cl)CN1CC(=O)NC1=N2 :: < 4.00
Nc1cc(-c2ccncc2)c[nH]c1=O [Amrinone, 5Amino-(3,4bipyridin)-6(1H)--one, reference compound] :: < 4.00
CN(C)c1ccc2c(c1)CN1CC(=O)NC1=N2 :: < 4.00
CN(C)c1cc2c(cc1Cl)NC1=NC(=O)CN1C2 :: < 4.00

---

IC50 listing for selected compounds.
System: human platelet PDE II
Assay: Inhibitory activity on phosphodiesterase, platelet PDE II (cGMP)
Assay type: biochemical
Details: cGMP substrate
measured endpoint: IC50 (µM)

O=C1CN2Cc3cc(N4CCCCC4)ccc3N=C2N1 [7-Piperidino Compound, reference compound] :: 54
CN(C)c1cc2c(cc1Cl)NC1=NC(=O)CN1C2 :: 5.1
CN(C)c1ccc2c(c1)CN1CC(=O)NC1=N2 :: 57
CC1CCCCN1c1ccc2c(c1)CN1CC(=O)NC1=N2 (centres unmarked) :: 57
O=C1CN2Cc3c(ccc(Cl)c3Cl)N=C2N1 :: 3.3
CN(C)c1ccc2c(c1Cl)CN1CC(=O)NC1=N2 :: 2.9
